molecular target: CHIKV-IbH35 virus (West African genotype), envelope glycoproteins E2-E1 (Chikungunya virus (strain IbH35))
# reported EC50 of neutralisation of CHIKV-IbH35 (FRNT on Vero cells); entries follow
Quick note: give the figure in ng/mL, leave out the unit.

Report EC50 of neutralisation of CHIKV-IbH35 (FRNT on Vero cells) for CHK-166 (mouse monoclonal antibody) (antibody, V domains shown) VH: EVRLVESGGGLEQPGGSLKLSCAASGFTFSDYFMYWVRQTPEKRLEWVAYISNGGISTFYSDAVKGRFTISRDNARNTLYLQMSRLKSEDTAIYYCVRQVYGQGYFDYWGQGTTLAVSS VL: QIVLIQSPAIMSASLGERVTMTCTASSSVSSSYLHWYQQKPGSSPKLWIYSSFSLASGVPARFSGSGSGTSYSLTISTMEAEDAATYYCHQYLRSPWTFGGGSKLEIK please.
82
